Give measured melting point for each item. Keep answers brief.

>>> value("COc1ccc(N)cc1C(=O)O")
"163 to 166 °C"
>>> value("NC(=O)c1cn(Cc2ccccc2F)nn1")
"220 to 222 °C"
>>> value("CC(C)(Cc1ccccc1)C(=O)C(Cc1ccccc1)n1cncn1 (centres undefined)")
"45 to 50 °C"

// input: 6 compounds below; output: melting point for each
1. CCCCCCCCCCCCCCCCOCC(CO)OCOC(c1ccccc1)(c1ccccc1)c1ccccc1 (centres undefined)
2. CCC(=O)Nc1ccc(C(=O)C(C)Br)cc1 (centres undefined)
3. CC(SC1COC(c2ccc(C(=O)Nc3ccc(F)cc3)cc2)OC1)C(O)(Cn1cncn1)c1ccc(F)cc1F (centres undefined)
4. CC(=O)NC(C(=O)NCc1cccnc1)c1ccco1 (centres undefined)
5. N#CCOc1ccc(Cl)c(Cl)c1
6. BrCC(Br)c1ccc(C(Br)CBr)cc1 (centres undefined)

Outgoing:
38 °C
126 to 127 °C
104 °C
172 to 174 °C
61 to 62 °C
155 to 157 °C
